From: patent US12662465B2

test system: intracellular phosphorylation of EGFR (Tyr1068) in PC-9 cells (Ex19Del) (Homo sapiens, UniProt P00533, DEL746-750)
Sequence (P00533 with tags, fused parts or gaps DEL746-750): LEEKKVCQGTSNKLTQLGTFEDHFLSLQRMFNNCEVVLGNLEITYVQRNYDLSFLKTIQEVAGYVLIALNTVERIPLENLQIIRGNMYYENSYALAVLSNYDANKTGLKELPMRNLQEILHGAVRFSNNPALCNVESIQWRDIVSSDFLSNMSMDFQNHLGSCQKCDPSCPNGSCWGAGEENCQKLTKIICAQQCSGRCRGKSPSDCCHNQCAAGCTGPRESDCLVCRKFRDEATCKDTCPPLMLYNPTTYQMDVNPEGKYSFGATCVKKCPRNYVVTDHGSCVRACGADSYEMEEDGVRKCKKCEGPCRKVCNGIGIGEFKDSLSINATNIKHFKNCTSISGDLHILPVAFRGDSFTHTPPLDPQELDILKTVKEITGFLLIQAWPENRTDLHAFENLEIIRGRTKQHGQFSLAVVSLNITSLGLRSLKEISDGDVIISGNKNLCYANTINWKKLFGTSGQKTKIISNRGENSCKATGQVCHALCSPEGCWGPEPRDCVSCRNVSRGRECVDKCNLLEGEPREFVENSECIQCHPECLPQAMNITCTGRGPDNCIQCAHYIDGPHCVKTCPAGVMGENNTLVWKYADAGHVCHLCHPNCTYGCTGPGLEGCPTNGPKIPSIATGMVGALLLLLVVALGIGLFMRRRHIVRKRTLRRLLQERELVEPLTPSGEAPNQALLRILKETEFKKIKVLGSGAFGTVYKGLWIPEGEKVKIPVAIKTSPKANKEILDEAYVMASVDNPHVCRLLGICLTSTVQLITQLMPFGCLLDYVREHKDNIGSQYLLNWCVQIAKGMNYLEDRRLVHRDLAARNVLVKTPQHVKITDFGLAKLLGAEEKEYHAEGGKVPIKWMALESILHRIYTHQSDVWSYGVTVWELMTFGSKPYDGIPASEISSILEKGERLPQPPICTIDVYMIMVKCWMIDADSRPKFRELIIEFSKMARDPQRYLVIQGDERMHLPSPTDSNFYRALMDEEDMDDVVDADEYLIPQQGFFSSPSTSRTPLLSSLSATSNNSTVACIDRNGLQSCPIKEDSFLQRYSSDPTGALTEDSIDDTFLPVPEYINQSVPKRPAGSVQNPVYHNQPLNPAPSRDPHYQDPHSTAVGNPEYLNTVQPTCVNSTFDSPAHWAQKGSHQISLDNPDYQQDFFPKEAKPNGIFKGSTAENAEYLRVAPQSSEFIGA
measurement protocol: PC-9 pEGFR AlphaLISA assay
test conditions: 4 hours compound incubation, read-out: Ext pEGFR_PC-9 Ex19Del IC50
property measured: IC50

Known results for molecules:
{"smiles notation": "C[C@@H](Oc1cc(-c2cnn(C)c2)cc2ncnc(Nc3ccc4ncccc4c3F)c12)C(CO)CO", "measured result": "≤ 10 nM"}
{"smiles notation": "C[C@@H](Oc1cc(-c2cnn(CCO)c2)cc2ncnc(Nc3ccc4ncccc4c3F)c12)C1COC1", "measured result": "≤ 10 nM"}

Alright, here's another molecule for you.
Could you share which IC50 value was measured for CN(C)CCOc1cc(-c2cnn(C)c2)cc2ncnc(Nc3ccc4ncccc4c3F)c12 ?
10.1 to 50 nM
